FYI, the data here is from patent US20150152192A1.

Measured IC50 of individual entries
Molecular target: T1, FLAG-Tagged hAng2 (human, UniProt O15123 19-496, limits assumed)
T1 construct: also called FLAG-Ang2; non-mutated Ang2
T1 sequence: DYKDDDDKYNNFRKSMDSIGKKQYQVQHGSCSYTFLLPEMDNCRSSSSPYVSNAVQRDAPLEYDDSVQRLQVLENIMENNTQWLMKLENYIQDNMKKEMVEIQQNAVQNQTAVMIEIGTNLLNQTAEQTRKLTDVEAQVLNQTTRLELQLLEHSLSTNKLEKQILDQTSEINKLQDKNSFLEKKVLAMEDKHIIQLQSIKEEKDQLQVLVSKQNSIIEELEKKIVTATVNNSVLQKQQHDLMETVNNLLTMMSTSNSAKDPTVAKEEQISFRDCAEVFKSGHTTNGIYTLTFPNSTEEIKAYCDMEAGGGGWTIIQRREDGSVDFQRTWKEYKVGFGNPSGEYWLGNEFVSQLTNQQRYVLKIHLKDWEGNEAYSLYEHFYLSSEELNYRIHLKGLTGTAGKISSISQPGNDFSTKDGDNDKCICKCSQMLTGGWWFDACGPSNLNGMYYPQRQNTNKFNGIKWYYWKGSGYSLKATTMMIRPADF
Experiment: competitive ELISA: hTie2-Fc coated, 400 ng/ml FLAG-hAng2 plus scFv, anti-FLAG-HRP

SAIT-ANG-2-AB-4-C11 (scFv form) (scFv, V domains shown, scFv from a phage display library) VH: EVQLLESGGGLVQPGGSLRLSCAASGFTFSDYAMSWVRQAPGKGLEWVSSIYPDDGNTYYADSVKGRFTISRDNSKNTLYLQMNSLRAEDTAVYYCARHTSHHTSIDGYYYYGMDGWGQGTLVTVSS VL: QSVLTQPPSASGTPGQRVTISCTGSSSNIGNNDVSWYQQLPGTAPKLLIYSDSKRPSGVPDRFSGSKSGTSASLAISGLRSEDEADYYCGSWDYSLSGYVFGGGTKLTVLG: 6.5 nM

Lookup: Look up IC50: SAIT-ANG-2-AB-4-F11 (scFv form) (scFv, V domains shown, scFv from a phage display library) VH: EVQLLESGGGLVQTGGSLRLSCAASGFTFSDYAMSWVRQAPGKGLEWVSSIYPDDGNTYYADSVKGRFTISRDNSKNTLYLQMNSLRAEDTAVYYCAKHPVRLNLHPMYYYYGMDVWGQGTLVTVSS VL: QSVLTQPPSASGTPGQRVTISCTGSSSNIGNNAVSWYQQLPGTAPKLLIYSDSQRPSGVPDRFSGSKSGTSASLAISGLRSEDEADYYCATWDYSLSAYVFGGGTKLTVLG
Found: 6.6 nM

Lookup: Look up IC50: SAIT-ANG-2-AB-4-F5 (scFv form) (scFv, V domains shown, scFv from a phage display library) VH: EVQLLESGGGLVQPGGSLRLSCAASGFTFSDYDMSWVRQAPGKGLEWVSSISHGDSNKYYADSVKGRFTISRDNSKNTLYLQMNSLRAEDTAVYYCAKSSGIQESPPTYYYYGMDVWGQGTLVTVSS VL: QSVLTQPPSASGTPGQRVTISCSGSSSNIGSNAVNWYQQLPGTAPKLLIYADSNRPSGVPDRFSGSKSGTSASLAISGLRSEDEADYYCGSWDYSLSGYVFGGGTKLTVLG
Found: 10 nM
